Collected Classification values appear next to each entry.
Target: T1, GST-TIP1 PDZ domain 1 (Table 9 insert) (Homo sapiens (Human)), O14907
T1 chain: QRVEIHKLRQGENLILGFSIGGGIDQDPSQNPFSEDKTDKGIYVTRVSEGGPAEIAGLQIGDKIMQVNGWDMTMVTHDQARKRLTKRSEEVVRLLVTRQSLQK
Assay: G' assay; further: key of the grades not given here
Respond numerically; units are A450 class and should not be typed.

Some entries whose results are on file:
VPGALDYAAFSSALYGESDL (modifications not checked) [a-actinin 2]: 5
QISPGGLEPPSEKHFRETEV (modifications not checked) [TAX]: 5
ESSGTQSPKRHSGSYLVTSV (modifications not checked) [APC-adenomatous polyposis coli protein]: 3

Challenge: Look at this binder and give its reported Classification. ERASSVYTRSTGEQEISVGL (modifications not checked) [CKR5 (HIV Co-receptor)]
Response given: 1

Challenge: Can you handle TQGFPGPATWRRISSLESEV (modifications not checked) [NMDA Glutamate Receptor 2C (cysteine-free)] next?
Response given: 5

Challenge: Request: AGAVRTPLSQVNKVWDQSSV (modifications not checked) [CITRON protein]
Response given: 5

Challenge: Another binder to check: RNIEEVYVGGKQVVPFSSSV (modifications not checked) [Nedasin (s-form)]
Response given: 5

Challenge: And for QDFRRAFRRILARPWTQTAW (modifications not checked) [alpha-2B Adrenergic receptor] ?
Response given: 5

Challenge: What about GPVPGEPAKPKTSAHHATFV (modifications not checked) [RGS12 (regulator of G-protein signaling 12] ?
Response given: 1

Provenance of the data: patent US20050282743A1
